Quick list: IC50 per entry.
# assayed_system: UniProtKB Q7Z5W3
# Sequence (Q7Z5W3 1-292): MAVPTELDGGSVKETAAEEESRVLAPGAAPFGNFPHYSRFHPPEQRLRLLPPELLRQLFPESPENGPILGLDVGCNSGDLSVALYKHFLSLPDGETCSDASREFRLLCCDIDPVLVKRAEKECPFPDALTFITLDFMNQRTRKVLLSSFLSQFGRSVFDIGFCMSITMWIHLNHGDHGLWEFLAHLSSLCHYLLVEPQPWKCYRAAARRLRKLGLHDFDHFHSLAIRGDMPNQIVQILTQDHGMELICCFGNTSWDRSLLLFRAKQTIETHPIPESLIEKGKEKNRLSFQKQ
# assay_text: BCDIN3D InCellPulse thermal stability assay in transfected A549 cells
# Format: cell-based
# assay_conditions: A549 cells transiently transfected with ePL-BCDIN3D, 1 h pre-incubation, heat shock 58° C. 15 min
Response body: numeric value in nM, unit text excluded.

// known answers, use as guide
| molecule | units_text | IC50 |
| --- | --- | --- |
| COc1ccc(CNc2nc(NCCN)nc3c2cnn3C)cc1Cl | nM | 7720 |
| Cn1ncc2c(Nc3ccc(F)cc3)nc(NC[C@H](N)c3ccccc3)nc21 | nM | 169 |
| COc1ccc(CNc2nc(NCC(C)(C)N)nc3c2cnn3C)cc1 | nM | 5340 |
| COc1ccc(CNc2nc(NCCN)nc3c2cnn3C)c(OC)c1 | nM | 10600 |
| [2H]C([2H])([2H])n1ncc2c(NC(C)(C)C)nc(NCC(N)c3ccccc3F)nc21 (stereo in doubt) | nM | 2140 |
| Cn1ncc2c(Nc3ccc(C(F)(F)F)nc3)nc(NC[C@@H](N)c3ccccc3)nc21 | nM | 414 |
| Cn1ncc2c(Nc3ccc(Oc4ccccc4)cc3)nc(NCCN)nc21 | nM | 918 |
| Cc1nn(C)c2nc(NCC(C)(C)N)cc(NCc3cccc(C(F)(F)F)c3)c12 | nM | 4000 |

Consider the record given below.
[Q] Using the record for Cn1ncc2c(Nc3ccc(C(F)(F)F)nc3)nc(NCC(C)(N)c3ccccc3)nc21 (single isomer, unassigned) , state its measured IC50.
[A] 133

====

# assayed_system: BCDIN3D (Homo sapiens)
# assay_text: BCDIN3D InCellPulse thermal stability assay in transfected A549 cells
# Assay type: cell-based
# assay_conditions: transiently transfected A549 cells, heat shock 58° C. 15 min
experimental_readout: IC50 (µM)
Response body: numeric value in µM, unit text excluded.

// known answers, use as guide
| molecule | IC50 [µM] |
| --- | --- |
| Cn1ncc2c(N[C@H]3C[C@@H](F)C3)nc(NC[C@H](N)c3ccccc3)nc21 | 0.989 |
| Cn1ncc2c(NCc3cccc(Br)c3)nc(NCC3(N)CC3)nc21 | 1.49 |
| Cn1ncc2c(NC(C)(C)C)nc(NCC(N)c3ccccc3)nc21 (centres unmarked) | 0.871 |
| Cn1ncc2c(Nc3ccc(OC(F)(F)F)cc3)nc(NCC3(N)CC3)nc21 | 0.815 |
| Cn1ncc2c(NCc3ccc(F)c(Cl)c3)nc(NCC3(N)CC3)nc21 | 1.91 |
| Cn1ncc2c(Nc3ccc(Cl)cc3F)nc(NCC3(N)CC3)nc21 | 1.63 |

[Q] Using the record for Cn1ncc2c(Nc3cccc(F)c3F)nc(NCC3(N)CC3)nc21 , state its measured IC50.
[A] 3.5

[Q] Using the record for Cn1ncc2c(NC3CC(F)(F)C3)nc(NCC(N)c3ccncc3)nc21 (centres unmarked) , state its measured IC50.
[A] 10

====

Quick list: pIC50 per entry.
# assayed_system: BCDIN3D (Homo sapiens)
# assay_text: BCDIN3D InCellPulse thermal stability assay in transfected A549 cells
# Format: cell-based
# assay_conditions: transiently transfected A549 cells, heat shock 58° C. 15 min
# Method: BCDIN3D InCellPulse™ Assay The thermal stability assay was performed with lipofectamine 3000 transiently transfected A549 using the plasmid pICP-ePL-BCDIN3 Da. This plasmid encodes for BCDIN3D N-terminally fused to a Prolabel (ePL), complementing a split β-Galactosidase Enzyme System InCELL Pulse Technology (InCELL Hunter Detection Kit, DiscoverX/Eurofins, cat: 96-0079L). […] Finally, the luminescence was measured with a Perkin Elmer EnVision with 0.2 s measurement time in luminescence mode.
Here pIC50 is given on a logarithmic scale as minus log10 of the concentration in mol/L.

// known answers, use as guide
| molecule | pIC50 |
| --- | --- |
| Cn1ncc2c(NCC(F)(F)F)nc(NC[C@H](N)c3ccccc3)nc21 | 6.38 |
| Cn1ncc2c(NC3CC4(C3)CC(F)(F)C4)nc(NCC(N)c3ccccc3)nc21 (stereo not drawn) | 7.39 |
| CC(C)CNc1nc(NC[C@H](N)c2ccccc2)nc2c1cnn2C | 6.32 |
| Cn1ncc2c(NCC(C)(C)C)nc(NC[C@H](N)c3ccccc3)nc21 | 6.50 |
| Cn1ncc2c(NCC(F)(F)F)nc(NCC(N)c3ccccc3)nc21 (stereo not drawn) | 6.00 |

Consider the record given below.
[Q] Using the record for Cn1ncc2c(NCC3CCC3)nc(NC[C@H](N)c3ccccc3)nc21 , state its measured pIC50.
[A] 6.84

====

Quick list: pIC50 per entry.
# assayed_system: BCDIN3D (Homo sapiens, UniProt Q7Z5W3)
# Sequence (Q7Z5W3 1-292): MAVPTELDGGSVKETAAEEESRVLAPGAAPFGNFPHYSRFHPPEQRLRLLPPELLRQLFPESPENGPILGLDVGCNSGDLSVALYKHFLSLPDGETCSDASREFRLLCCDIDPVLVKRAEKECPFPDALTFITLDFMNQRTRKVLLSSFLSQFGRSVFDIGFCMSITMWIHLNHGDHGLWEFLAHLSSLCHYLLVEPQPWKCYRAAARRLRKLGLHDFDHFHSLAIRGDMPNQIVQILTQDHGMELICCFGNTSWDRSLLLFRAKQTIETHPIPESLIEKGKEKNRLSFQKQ
# assay_text: BCDIN3D InCellPulse thermal stability assay in transfected A549 cells
# Format: cell-based
# assay_conditions: transiently transfected A549 cells, heat shock 58° C. 15 min
Here pIC50 is given on a logarithmic scale as minus log10 of the concentration in mol/L.

| compound | experimental_readout | experimental_value |
| --- | --- | --- |
| CC[C@@H](CN)Nc1nc(NCc2ccc(C)c(Cl)c2)c2cnn(C)c2n1 | pIC50 | 5.84 |
| C[C@H](Nc1nc(NC[C@H](N)c2ccccc2)nc2c1cnn2C)C1CC1 | pIC50 | 5.58 |
| Cn1ncc2c(Nc3ccc(C(F)(F)F)cc3)cc(NCC3(N)CC3)nc21 | pIC50 | 5.05 |
| Cn1ncc2c(NC34CC(c5ccccc5)(C3)C4)nc(NCC3(N)CC3)nc21 | pIC50 | 6.68 |
| Cn1ncc2c(NCC3CC(F)C3)nc(NC[C@H](N)c3ccccc3)nc21 (stereo partly drawn) | pIC50 | 6.21 |
| CCNc1nc(NCC(N)c2ccccc2)nc2c1cnn2C (stereo not drawn) | pIC50 | 5.48 |
| Cn1ncc2c(NC(C)(C)C)nc(NCC(N)c3cccnc3)nc21 (stereo not drawn) | pIC50 | 5.93 |
| Cc1ccc(Nc2nc(NCC3(N)CC3)nc3c2cnn3C)cc1Cl | pIC50 | 6.22 |

[Q] Using the record for Cn1ncc2c(Nc3ccc(Cl)c(C#N)c3)nc(NCC3(N)CC3)nc21 , state its measured pIC50.
[A] 5.59

[Q] Using the record for Cn1ncc2c(Nc3cccc(C(F)(F)F)c3)nc(NCC3(N)CC3)nc21 , state its measured pIC50.
[A] 5.66

[Q] Using the record for C#Cc1cccc(C(N)CNc2nc(NC(C)(C)C)c3cnn(C)c3n2)c1 (stereo not drawn) , state its measured pIC50.
[A] 7.17

[Q] Using the record for Cn1ncc2c(Nc3ccc(C(F)F)cc3)nc(NCC3(N)CC3)nc21 , state its measured pIC50.
[A] 5.70

[Q] Using the record for Cn1ncc2c(Nc3ccc(C(F)(F)F)cc3)nc(NCC3(N)CC(F)(F)C3)nc21 , state its measured pIC50.
[A] 5.80

[Q] Using the record for [2H]C([2H])([2H])n1ncc2c(NC(C)(C)C)nc(NCC(C)(N)c3ccccc3)nc21 (stereo not drawn) , state its measured pIC50.
[A] 5.71

[Q] Using the record for Cn1ncc2c(Nc3ccc(C#N)cc3)nc(NCC3(N)CCCC3)nc21 , state its measured pIC50.
[A] 5.65
